biological target: glucocorticoid receptor (Homo sapiens); construct: containing 50-200 ug of A549 cell extract and 1.86 nM; host or cells: A549 human lung epithelial cells; test: Glucocorticoid Receptor Binding Assay (Method 1), [3H]-dexamethasone competition, A549 cell extract; details: 1.86 nM [3H]-dexamethasone, read-out: GR Ki (nM) Method 1
property.label: Ki

The examples below pair each entry with its known result.
CCCC(C)(c1ccccc1)c1c[nH]c2c(C)cccc12 (stereo not drawn) [Example 37] = < 500 nM
CC(C)(c1ccc(-c2ccccc2)cc1)c1c[nH]c2c(NS(C)(=O)=O)cccc12 [Example 39] = < 1000 nM
CCCC(C)(c1ccc(F)cc1)c1c[nH]c2c(NS(C)(=O)=O)cccc12 (stereo not drawn) [Example 7] = < 500 nM
CCCC(C)(c1cccc(OC)c1)c1c[nH]c2c(N)cccc12 (stereo not drawn) [Example 38] = < 1000 nM
CCc1cccc2c(C(C)(c3ccc(O)cc3)c3ccc(F)cc3)c[nH]c12 (stereo not drawn) [Example 27] = < 1000 nM
CCC(CC)(c1cc2ccccc2o1)c1c[nH]c2c(NS(C)(=O)=O)cccc12 [Example 2] = < 500 nM

Memo: CCc1ccc(C(CC)(CC)c2c[nH]c3c(NS(C)(=O)=O)cccc23)cc1 [Example 66] , reported Ki: < 500 nM

Memo: Cc1cccc2c(C(C)(c3ccc(F)cc3)C3CC3)c[nH]c12 (stereo not drawn) [Example 40] , reported Ki: < 500 nM

Memo: CCCC(C)(c1ccc(OC)cc1)c1c[nH]c2c(N)cccc12 (stereo not drawn) [Example 50] , reported Ki: < 500 nM

Memo: CC(C)(c1csc2ccccc12)c1c[nH]c2c(NS(C)(=O)=O)cccc12 [Example 14] , reported Ki: < 500 nM

Memo: O=C(O)Cn1cc(C(c2ccccc2)(c2ccccc2)c2ccccc2)c2ccccc21 [Example 51, (3-Trityl-indol-1-yl)-acetic acid] , reported Ki: < 10000 nM

Memo: CC(C)(c1ccc(F)cc1)c1c[nH]c2c(NS(C)(=O)=O)cccc12 [Example 76] , reported Ki: < 500 nM

Memo: CS(=O)(=O)Nc1cccc2c(C3(c4ccccc4)CCCC3)c[nH]c12 [Example 21] , reported Ki: < 500 nM

Memo: CCC(C)(c1ccc(F)cc1)c1c[nH]c2c(NS(C)(=O)=O)cccc12 (stereo not drawn) [Example 73] , reported Ki: < 500 nM

* * *

property.label: melting point

The examples below pair each entry with its known result.
CCC(CC)(c1ccc2scnc2c1)c1c[nH]c2c(NS(C)(=O)=O)cccc12 = 105 to 115 °C (dec.)
CCC(CC)(c1ccc2oc(C)cc2c1)c1c[nH]c2c(NS(C)(=O)=O)cccc12 = 100 to 105 °C
CCC(CC)(c1ccc2cc[nH]c2c1)c1c[nH]c2c(NS(C)(=O)=O)cccc12 = 110 to 115 °C
CCC(CC)(c1ccc2c(N)noc2c1)c1c[nH]c2c(NS(C)(=O)=O)cccc12 = 95 to 105 °C
CCC(CC)(c1ccc2c(ccn2C(C)=O)c1)c1c[nH]c2c(NS(C)(=O)=O)cccc12 = 125 to 130 °C

Memo: CCC(CC)(c1ccc(F)cc1)c1c[nH]c2c(NS(C)(=O)=O)cccc12 , reported melting point: 137 to 138 °C

Memo: CCC(CC)(c1ccc2oc(C)nc2c1)c1c[nH]c2c(NS(C)(=O)=O)cccc12 , reported melting point: 152 to 160 °C

Memo: CCC(CC)(c1ccc2sc(Cl)nc2c1)c1c[nH]c2c(NS(C)(=O)=O)cccc12 , reported melting point: 217 to 220 °C

Memo: CCC(CC)(c1ccc2nc(NC(C)=O)sc2c1)c1c[nH]c2c(NS(C)(=O)=O)cccc12 , reported melting point: 286 to 288 °C

Memo: CCC(CC)(c1cccc2oc(C)cc12)c1c[nH]c2c(NS(C)(=O)=O)cccc12 , reported melting point: 85 to 90 °C

* * *

molecular target: glucocorticoid receptor (Homo sapiens, UniProt P04150); construct: containing 50-200 ug of A549 cell extract and 1.86 nM; host or cells: A549 human lung epithelial cells; assay: Glucocorticoid Receptor Binding Assay (Method 1), [3H]-dexamethasone competition, A549 cell extract; conditions: 1.86 nM [3H]-dexamethasone, read-out: GR Ki (nM) Method 1
property.label: Ki

CCCC(C)(c1ccc(F)cc1)c1c[nH]c2c(C)cccc12 (centres unmarked) = < 500 nM
CCC(CC)(c1ccc(C(F)(F)F)cc1)c1c[nH]c2c(NS(C)(=O)=O)cccc12 = < 500 nM
CCC(CC)(c1ccc(F)cc1)c1c[nH]c2c(N)cccc12 = < 1000 nM
CC(c1ccccc1)(c1ccccc1)c1cn(CC(=O)O)c2ccccc12 = < 10000 nM

# ---- query compound ----
Memo: CCC(CC)(c1cc2ccccc2s1)c1c[nH]c2c(NS(C)(=O)=O)cccc12 , reported Ki: < 500 nM

* * *

target: glucocorticoid receptor (Homo sapiens); construct: containing 50-200 ug of A549 cell extract and 1.86 nM; host or cells: A549 human lung epithelial cells; assay: Glucocorticoid Receptor Binding Assay (Method 1), [3H]-dexamethasone competition, A549 cell extract; details: 1.86 nM [3H]-dexamethasone, read-out: GR Ki (nM) Method 1
// reported Ki for each item listed

CS(=O)(=O)Nc1cccc2c(C3(c4ccccc4)CCOCC3)c[nH]c12 = < 500 nM
CCC(CC)(c1cccc(F)c1)c1c[nH]c2c(NS(C)(=O)=O)cccc12 = < 500 nM
CCC(CC)(c1ccccc1)c1c[nH]c2c(NS(C)(=O)=O)cccc12 = < 500 nM

Measured on glucocorticoid receptor (Homo sapiens), CCC(CC)(c1ccc(F)cc1F)c1c[nH]c2c(NS(C)(=O)=O)cccc12 has a documented Ki of < 500 nM

Measured on glucocorticoid receptor (Homo sapiens), CC(C)(c1ccc2c(c1)CCO2)c1c[nH]c2c(NS(C)(=O)=O)cccc12 has a documented Ki of < 500 nM

Measured on glucocorticoid receptor (Homo sapiens), CC(C)(c1cccc(-c2ccc(F)cc2)c1)c1c[nH]c2c(NS(C)(=O)=O)cccc12 has a documented Ki of < 10000 nM

Measured on glucocorticoid receptor (Homo sapiens), CCC(CC)(c1ccc([S@+](C)[O-])cc1)c1c[nH]c2c(NS(C)(=O)=O)cccc12 (stereo in doubt) has a documented Ki of < 500 nM

Measured on glucocorticoid receptor (Homo sapiens), CCCC(C)(c1cccc(OC)c1)c1c[nH]c2c(NS(C)(=O)=O)cccc12 (centres unmarked) has a documented Ki of < 500 nM

Measured on glucocorticoid receptor (Homo sapiens), CCC(CC)(c1cccc(C)c1)c1c[nH]c2c(NS(C)(=O)=O)cccc12 has a documented Ki of < 500 nM

Measured on glucocorticoid receptor (Homo sapiens), CCC(CC)(c1ccc(F)cc1)c1c[nH]c2c(NS(C)(=O)=O)cccc12 has a documented Ki of < 500 nM

Measured on glucocorticoid receptor (Homo sapiens), COc1ccc(C(C)(c2ccccc2)c2c[nH]c3c(C)cccc23)cc1 (centres unmarked) has a documented Ki of < 1000 nM

Measured on glucocorticoid receptor (Homo sapiens), CCC(CC)(c1ccco1)c1c[nH]c2c(NS(C)(=O)=O)cccc12 has a documented Ki of < 500 nM

Measured on glucocorticoid receptor (Homo sapiens), CCC(CC)(c1ccccc1F)c1c[nH]c2c(NS(C)(=O)=O)cccc12 has a documented Ki of < 500 nM

Measured on glucocorticoid receptor (Homo sapiens), CCCC(C)(c1ccccc1OC)c1c[nH]c2c(NS(C)(=O)=O)cccc12 (centres unmarked) has a documented Ki of < 500 nM

* * *

Target: glucocorticoid receptor (Homo sapiens)
Construct: containing 50-200 ug of A549 cell extract and 1.86 nM; host or cells: A549 human lung epithelial cells
Sequence (P04150 1-777): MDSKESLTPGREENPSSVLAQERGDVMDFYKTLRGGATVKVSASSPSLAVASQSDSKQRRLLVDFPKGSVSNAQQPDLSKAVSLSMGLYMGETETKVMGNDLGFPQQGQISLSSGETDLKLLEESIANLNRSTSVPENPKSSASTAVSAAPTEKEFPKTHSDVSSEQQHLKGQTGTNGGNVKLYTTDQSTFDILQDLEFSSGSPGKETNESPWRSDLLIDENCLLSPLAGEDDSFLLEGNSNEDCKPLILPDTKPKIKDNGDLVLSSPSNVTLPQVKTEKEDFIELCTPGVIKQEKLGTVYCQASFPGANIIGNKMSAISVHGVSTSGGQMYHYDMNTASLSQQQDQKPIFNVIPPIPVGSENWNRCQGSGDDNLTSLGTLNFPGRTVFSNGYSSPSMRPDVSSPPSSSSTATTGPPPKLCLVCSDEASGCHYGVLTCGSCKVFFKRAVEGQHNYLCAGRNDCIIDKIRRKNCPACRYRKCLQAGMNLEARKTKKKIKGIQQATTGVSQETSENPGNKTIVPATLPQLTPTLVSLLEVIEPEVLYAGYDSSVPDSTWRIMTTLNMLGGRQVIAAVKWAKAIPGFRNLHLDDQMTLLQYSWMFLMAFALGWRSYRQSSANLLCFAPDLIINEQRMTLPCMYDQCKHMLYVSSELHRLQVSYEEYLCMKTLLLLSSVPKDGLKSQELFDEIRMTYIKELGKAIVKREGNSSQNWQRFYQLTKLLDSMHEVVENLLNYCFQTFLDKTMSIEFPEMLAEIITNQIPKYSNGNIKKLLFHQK
Test: Glucocorticoid Receptor Binding Assay (Method 1), [3H]-dexamethasone competition, A549 cell extract
Settings: 1.86 nM [3H]-dexamethasone, read-out: GR Ki (nM) Method 1
property.label: Ki

The examples below pair each entry with its known result.
CCC(CC)(c1ccccc1C)c1c[nH]c2c(NS(C)(=O)=O)cccc12 = < 500 nM
CCC(CC)(c1ccc(SC)cc1)c1c[nH]c2c(NS(C)(=O)=O)cccc12 = < 500 nM
Cc1ccc(C(C)(C)c2c[nH]c3c(N)cccc23)cc1 = < 10000 nM
CC(C)(c1ccc2ncccc2c1)c1c[nH]c2c(NS(C)(=O)=O)cccc12 = < 500 nM
Cc1cccc2c(C3(c4ccc(F)cc4)CCCCC3)c[nH]c12 = < 10000 nM

Memo: CCCC(C)(c1ccccc1)c1c[nH]c2c(NS(C)(=O)=O)cccc12 (stereo not drawn) , reported Ki: < 500 nM

Memo: CCCCC(C)(c1ccc(OC)cc1)c1c[nH]c2c(C)cccc12 (stereo not drawn) , reported Ki: < 500 nM

Measured values drawn from patent US20060235222A1 for this set.
